Reference source: patent US12433952B2

- Test system: SK-BR-3 (breast cancer)
- assayText: In vitro cytotoxicity of camptothecin analogues (CellTiter-Glo)
- Type: cell-based
- assayContext: Homo sapiens, SK-BR-3, 96 h, read-out: pIC50 SKBR-3 (converted)
readoutKind: IC50
Field: value (include unit after the number)

Below: 3 molecules and their reported IC50.
CC[C@@]1(O)C(=O)OCc2c1cc1n(c2=O)Cc2c-1nc1cc(F)c(C)cc1c2CNS(N)(=O)=O [Compound 131] :: 1.05 nM
CC[C@@]1(O)C(=O)OCc2c1cc1n(c2=O)Cc2c-1nc1cc(F)c(OC)cc1c2CNS(=O)(=O)c1ccc(N)cc1 [Compound 128] :: 5.25 nM
CC[C@@]1(O)C(=O)OCc2c1cc1n(c2=O)Cc2c-1nc1cc(F)c(C)cc1c2CNS(=O)(=O)c1ccccc1 [Compound 125] :: 1.32 nM

Continue with the molecule presented below.
Noted IC50 for CC[C@@]1(O)C(=O)OCc2c1cc1n(c2=O)Cc2c-1nc1cc(F)c(C)cc1c2CN1C2CCC1(CO)CC2 [Compound 121] , tested on SK-BR-3 (breast cancer): 0.148 nM

###

Listing of entries alongside the reported IC50.
- System: SK-BR-3 (breast cancer)
- assayText: In vitro cytotoxicity of camptothecin analogues (CellTiter-Glo)
- Assay type: cell-based
- assayContext: Homo sapiens, SK-BR-3, 96 h, read-out: pIC50 SKBR-3 (converted)
Form entry: value (nM) — number only.

Below, 5 molecules whose answers are already recorded.
CC[C@@]1(O)C(=O)OCc2c1cc1n(c2=O)Cc2c-1nc1cc(F)c(C)cc1c2CN1CCSCC1CO (stereo partly shown) [Compound 114] :: 0.107
CC[C@@]1(O)C(=O)OCc2c1cc1n(c2=O)Cc2c-1nc1cc(F)c(C)cc1c2CN1CCO[C@@H](CO)C1 [Compound 113] :: 1.95
CC[C@@]1(O)C(=O)OCc2c1cc1n(c2=O)Cc2c-1nc1cc(F)c(C)cc1c2CN1CCN(c2ccc(N)cc2)CC1 [Compound 108] :: 29.5
CC[C@@]1(O)C(=O)OCc2c1cc1n(c2=O)Cc2c-1nc1cc(F)c(C)cc1c2CNS(=O)(=O)c1ccc(N)cc1 [Compound 127] :: 3.31
CC[C@@]1(O)C(=O)OCc2c1cc1n(c2=O)Cc2c-1nc1cc(F)c(OC)cc1c2CNC(=O)NCc1ccc(N)cc1 [Compound 135] :: 12.3

molecule CC[C@@]1(O)C(=O)OCc2c1cc1n(c2=O)Cc2c-1nc1cc(F)c(N)cc1c2CN=[N+]=[N-] [Compound 152] , IC50 observed: 3.24

Per the records, this molecule ( CC[C@@]1(O)C(=O)OCc2c1cc1n(c2=O)Cc2c-1nc1cc(F)c(C)cc1c2CNS(C)(=O)=O [Compound 122] ) has IC50 equal to 1.12

###

The following molecules are listed with their measured IC50 values.
- Tested on: SKOV-3 (ovarian cancer)
- assayText: In vitro cytotoxicity of camptothecin analogues (CellTiter-Glo)
- Assay type: cell-based
- assayContext: Homo sapiens, SK-OV-3, 96 h; 4 d incubation; read-out: pIC50 SKOV-3 (converted)
Please respond with the number in nM and leave the unit unwritten.

Kindly note: SKOV-3 (ovarian cancer), CC[C@@]1(O)C(=O)OCc2c1cc1n(c2=O)Cc2c-1nc1cc(F)c(OC)cc1c2CNS(C)(=O)=O , IC50 value reported: 19.5

Response field IC50 (SKOV-3 (ovarian cancer)) for item CC[C@@]1(O)C(=O)OCc2c1cc1n(c2=O)Cc2c-1nc1cc(F)c(N)cc1c2CO : 2.82

Record CC[C@@]1(O)C(=O)OCc2c1cc1n(c2=O)Cc2c-1nc1cc(F)c(N)cc1c2CNS(=O)(=O)CCO has SKOV-3 (ovarian cancer) IC50 equal to 63.1

# CC[C@@]1(O)C(=O)OCc2c1cc1n(c2=O)Cc2c-1nc1cc(F)c(C)cc1c2CN1CCN(S(=O)(=O)c2ccccc2)CC1 with SKOV-3 (ovarian cancer): IC50 is 2.14

Bench note, SKOV-3 (ovarian cancer): entry CC[C@@]1(O)C(=O)OCc2c1cc1n(c2=O)Cc2c-1nc1cc(F)c(N)cc1c2CNC(=O)NCCO , its IC50 = 45.7

// returns IC50 for CC[C@@]1(O)C(=O)OCc2c1cc1n(c2=O)Cc2c-1nc1cc(F)c(OC)cc1c2CNS(=O)(=O)CCO with SKOV-3 (ovarian cancer); value = 24

Entry CC[C@@]1(O)C(=O)OCc2c1cc1n(c2=O)Cc2c-1nc1cc(F)c(OC)cc1c2CN1CCN(S(=O)(=O)c2ccccc2)CC1 , SKOV-3 (ovarian cancer) data, IC50 value: 4.37

###

- Test system: SKOV-3 (ovarian cancer)
- assayText: In vitro cytotoxicity of camptothecin analogues (CellTiter-Glo)
- Assay type: cell-based
- assayContext: Homo sapiens, SK-OV-3, 96 h; 4 d incubation; read-out: pIC50 SKOV-3 (converted)
readoutKind: IC50
Entry format: amount then unit.

// solved cases for IC50 follow
CC[C@@]1(O)C(=O)OCc2c1cc1n(c2=O)Cc2c-1nc1cc(F)c(C)cc1c2CNC(=O)NC [Compound 132] :: 105 nM
CC[C@@]1(O)C(=O)OCc2c1cc1n(c2=O)Cc2c-1nc1cc(F)c(C)cc1c2CN1CCN(C)CC1 [Compound 106] :: 7.41 nM
CC[C@@]1(O)C(=O)OCc2c1cc1n(c2=O)Cc2c-1nc1cc(F)c(C)cc1c2CN1CCCCC1 [Compound 110] :: 0.933 nM

Field: next molecule
Lab note: CC[C@@]1(O)C(=O)OCc2c1cc1n(c2=O)Cc2cc3cc(N)c(F)cc3nc2-1 [Compound 140] gave IC50 of 0.457 nM

###

- System: ZR-75-1 (breast cancer)
- assayText: In vitro cytotoxicity of camptothecin analogues (CellTiter-Glo)
- Type: cell-based
- assayContext: Homo sapiens, ZR-75-1, 120 h, read-out: pIC50 ZR-75 (converted)
So basically: is IC50 under 2 nM? Then criterion met. Not under? Then criterion not met.

Solved cases (5 shown):
CC[C@@]1(O)C(=O)OCc2c1cc1n(c2=O)Cc2c-1nc1cc(F)c(C)cc1c2CNS(=O)(=O)c1ccc(N)cc1 [Compound 127] :: criterion not met
CC[C@@]1(O)C(=O)OCc2c1cc1n(c2=O)Cc2c-1nc1cc(F)c(C)cc1c2CNS(N)(=O)=O [Compound 131] :: criterion met
CC[C@@]1(O)C(=O)OCc2c1cc1n(c2=O)Cc2c-1nc1cc(F)c(C)cc1c2CN1CCN(c2ccc(N)cc2)CC1 [Compound 108] :: criterion not met
CC[C@@]1(O)C(=O)OCc2c1cc1n(c2=O)Cc2c-1nc1cc(F)c(C)cc1c2CN1CCO[C@@H](CO)C1 [Compound 113] :: criterion not met
CC[C@@]1(O)C(=O)OCc2c1cc1n(c2=O)Cc2c-1nc1cc(F)c(C)cc1c2CNS(C)(=O)=O [Compound 122] :: criterion met

Could you now consider this next compound?
(Q) Please state whether IC50 is below 2 nM for CC[C@@]1(O)C(=O)OCc2c1cc1n(c2=O)Cc2c-1nc1cc(F)c(C)cc1c2CNS(=O)(=O)c1ccccc1 [Compound 125]
(A) criterion met

###

- Tested on: SK-BR-3 (breast cancer)
- assayText: In vitro cytotoxicity of camptothecin analogues (CellTiter-Glo)
- Assay type: cell-based
- assayContext: Homo sapiens, SK-BR-3, 96 h; 4 d incubation; read-out: pIC50 SKBR-3 (converted)
readoutKind: IC50 (nM)
The response must be a number in nM with no trailing unit.

These recorded examples may help you get a feel for the data.
CC[C@@]1(O)C(=O)OCc2c1cc1n(c2=O)Cc2c-1nc1cc(F)c(N)cc1c2CN1CCCCC1 [Compound 148] :: 0.324
CC[C@@]1(O)C(=O)OCc2c1cc1n(c2=O)Cc2c-1nc1cc(F)c(N)cc1c2CN [Compound 145] :: 0.355
CC[C@@]1(O)C(=O)OCc2c1cc1n(c2=O)Cc2c-1nc1cc(F)c(C)cc1c2CN1CCNCC1 [Compound 112] :: 6.61
CC[C@@]1(O)C(=O)OCc2c1cc1n(c2=O)Cc2c-1nc1cc(F)c(N)cc1c2CNC(=O)OC [Compound 143] :: 0.389
CC[C@@]1(O)C(=O)OCc2c1cc1n(c2=O)Cc2c-1nc1cc(F)c(N)cc1c2CN1CCN(C)CC1 [Compound 149] :: 3.16

Please examine the following record next.
// recorded IC50 for CC[C@@]1(O)C(=O)OCc2c1cc1n(c2=O)Cc2c-1nc1cc(F)c(C)cc1c2CN1CCN(S(=O)(=O)c2ccc(N)cc2)CC1 [Compound 104] : 2.69

###

- Test system: SK-BR-3 (breast cancer)
- assayText: In vitro cytotoxicity of camptothecin analogues (CellTiter-Glo)
- Format: cell-based
- assayContext: Homo sapiens, SK-BR-3, 96 h; 4 d incubation; read-out: pIC50 SKBR-3 (converted)
Entries and their IC50 values follow.
Give the value; after it, write the unit.

Consider the reported IC50 for these compounds:
CC[C@@]1(O)C(=O)OCc2c1cc1n(c2=O)Cc2c-1nc1cc(F)c(C)cc1c2CN1CC(F)(CO)C1 :: 1.51 nM
CC[C@@]1(O)C(=O)OCc2c1cc1n(c2=O)Cc2c-1nc1cc(F)c(OC)cc1c2CN1CCN(S(=O)(=O)c2ccc(N)cc2)CC1 :: 3.63 nM
CC[C@@]1(O)C(=O)OCc2c1cc1n(c2=O)Cc2c-1nc1cc(F)c(C)cc1c2CNC(=O)OCCO :: 1.2 nM
CC[C@@]1(O)C(=O)OCc2c1cc1n(c2=O)Cc2c-1nc1cc(F)c(OC)cc1c2CN1CCN(c2ccc(N)cc2)CC1 :: 5.75 nM

Reported IC50 of CC[C@@]1(O)C(=O)OCc2c1cc1n(c2=O)Cc2c-1nc1cc(F)c(C)cc1c2CNS(=O)(=O)Cc1ccc([N+](=O)[O-])cc1 : 1.2 nM

Noted for CC[C@@]1(O)C(=O)OCc2c1cc1n(c2=O)Cc2c-1nc1cc(F)c(C)cc1c2CN1CC2CC(C1)C2O (some centres unmarked) : its IC50 reads 0.0955 nM

Per the records, this compound ( CC[C@@]1(O)C(=O)OCc2c1cc1n(c2=O)Cc2c-1nc1cc(F)c(C)cc1c2CN1CCC(F)(F)C(CO)C1 (some centres unmarked) ) has IC50 equal to 1.1 nM

Looking up CC[C@@]1(O)C(=O)OCc2c1cc1n(c2=O)Cc2c-1nc1cc(F)c(OC)cc1c2CN1CCOCC1 , I found its IC50 recorded as 1.07 nM

Entry CC[C@@]1(O)C(=O)OCc2c1cc1n(c2=O)Cc2c-1nc1cc(F)c(OC)cc1c2CNS(=O)(=O)CCO — recorded IC50 = 14.8 nM

Briefly, IC50 measured for CC[C@@]1(O)C(=O)OCc2c1cc1n(c2=O)Cc2c-1nc1cc(F)c(C)cc1c2CN1CCS(=O)(=O)CC1CO (some centres unmarked) : 7.08 nM

Lab note: measured IC50 of CC[C@@]1(O)C(=O)OCc2c1cc1n(c2=O)Cc2c-1nc1cc(F)c(OC)cc1c2CNC(=O)NC was 6.76 nM

Record summary for CC[C@@]1(O)C(=O)OCc2c1cc1n(c2=O)Cc2c-1nc1cc(F)c(N)cc1c2CNC(=O)NC : reported IC50 = 0.794 nM

# compound CC[C@@]1(O)C(=O)OCc2c1cc1n(c2=O)Cc2c-1nc1cc(F)c(OC)cc1c2CN1CCN(C)CC1 ; its IC50 = 3.09 nM

Quick note, IC50 for CC[C@@]1(O)C(=O)OCc2c1cc1n(c2=O)Cc2c-1nc1cc(F)c(C)cc1c2CN1CCN(S(=O)(=O)c2ccccc2)CC1 landed at 0.933 nM

So for CC[C@@]1(O)C(=O)OCc2c1cc1n(c2=O)Cc2c-1nc1cc(F)c(N)cc1c2CNS(C)(=O)=O , the logged IC50 turned out to be 1.74 nM

Reported IC50 ( CC[C@@]1(O)C(=O)OCc2c1cc1n(c2=O)Cc2c-1nc1cc(F)c(C)cc1c2CN1CCOCC1 ) = 1.1 nM

get_value(item= CC[C@@]1(O)C(=O)OCc2c1cc1n(c2=O)Cc2c-1nc1cc(F)c(C)cc1c2CN1CC2CC1(CO)CO2 (some centres unmarked) , readout=IC50) returns 2.57 nM
